molecular target: recombinant human PIM1 (Homo sapiens (Human), UniProt P11309); assay: PIM-1 kinase activity in cell-free in vitro assay; type: biochemical; details: 500 nM compound, cell-free assay; read-out: PIM-1: % inh 500 nM
Sequence (P11309 whole entry): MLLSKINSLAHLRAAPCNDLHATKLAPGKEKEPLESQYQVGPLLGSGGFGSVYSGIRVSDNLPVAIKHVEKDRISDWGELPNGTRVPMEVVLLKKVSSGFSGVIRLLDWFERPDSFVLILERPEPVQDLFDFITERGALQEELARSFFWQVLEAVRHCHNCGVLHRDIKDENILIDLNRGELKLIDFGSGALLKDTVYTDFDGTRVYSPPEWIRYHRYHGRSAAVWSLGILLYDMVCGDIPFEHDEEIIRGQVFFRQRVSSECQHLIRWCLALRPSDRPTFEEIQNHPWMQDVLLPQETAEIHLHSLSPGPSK
Reported Endpoint: inhibition at 0.5 µM (%)

Solved cases below.
                                   molecule                                    system     reported_endpoint  output_unit  assay_value
0  Cc1cnc(CNC(=O)c2ccc3c(c2)nc(N2CCN(C)CC2)c2ccncc23)cn1  recombinant human PIM1 (Homo sapiens (Human), UniProt P11309)  inhibition at 0.5 µM            %        -23.1
1  O=C(O)c1ccc2c(c1)nc(NCCc1ccccn1)c1ccncc12  recombinant human PIM1 (Homo sapiens (Human), UniProt P11309)  inhibition at 0.5 µM            %        -8.95
2  CCN1CCC[C@@H]1CNc1nc2cc(-c3nnn[nH]3)ccc2c2sccc12  recombinant human PIM1 (Homo sapiens (Human), UniProt P11309)  inhibition at 0.5 µM            %         89.9
3  CN(C)CCNc1nc2cc(-c3nnn[nH]3)ccc2c2sc(-c3ccccc3)cc12  recombinant human PIM1 (Homo sapiens (Human), UniProt P11309)  inhibition at 0.5 µM            %        -14.8
4  Clc1ccc(Nc2nc3cc(-c4nnn[nH]4)ccc3c3ccsc23)cc1  recombinant human PIM1 (Homo sapiens (Human), UniProt P11309)  inhibition at 0.5 µM            %         40.4

[a] CC(Nc1ncc2c(n1)c(NC1CC1)nc1cc(C(=O)O)ccc12)c1ccccc1 (stereo not shown)
[b] Fc1ccc(Nc2nc3cc(-c4nnn[nH]4)ccc3c3ccsc23)cc1Cl
[c] O=C(Nc1ccccc1)c1ccc2c(c1)nc(NC1CC1)c1nc(NC3CC3)ncc12
[d] Clc1nc2ccccc2c2cnccc12
Input: Rank the 4 molecules: largest inhibition at 0.5 µM first, smallest last. The reply should contain the labels ordered as requested.
Output: b, d, c, a

----------
target: recombinant human PIM1 (Homo sapiens (Human), UniProt P11309); test: PIM-1 kinase activity in cell-free in vitro assay; type: biochemical; settings: cell-free
pIC50: −log10 of the molar value.
Reported Endpoint: pIC50

Solved cases below.
>>> print(df.to_string())
                                   compound  reported_endpoint  assay_value
0  O=C(O)c1ccc2c(c1)nc(Nc1cccc(Cl)c1)c1ccsc12              pIC50         6.41
1  COc1cccc(Nc2nc3cc(-c4nnn[nH]4)ccc3c3sccc23)c1              pIC50         6.45

[P] O=C(O)c1ccc2c(c1)nc(Nc1ccc(F)c(Cl)c1)c1ccsc12
[Q] O=C(O)c1ccc2c(c1)nc(Nc1cccc(F)c1F)c1ccsc12
Input: Larger number for pIC50: P , or Q ? Answer by quoting the chosen item's label.
Output: P
(P: 6.59, Q: 6.07)

----------
molecular target: recombinant human PIM1 (Homo sapiens (Human)); assay: PIM-1 kinase activity in cell-free in vitro assay; type: biochemical; conditions: cell-free
Reported Endpoint: IC50 (nM)

>>> df
                                   molecule  assay_value
0  C#Cc1cccc(Nc2nc3cc(-c4nnn[nH]4)ccc3c3sccc23)c1          716
1  COc1ccc(Nc2nc3cc(-c4nnn[nH]4)ccc3c3sccc23)cc1OC          809
2  O=C(O)c1ccc2c(c1)nc(Nc1cccc(Br)c1)c1ccsc12          553
3  Fc1ccc(Nc2nc3cc(-c4nnn[nH]4)ccc3c3sccc23)cc1Cl          702
4  O=C(O)c1ccc2c(c1)nc(Nc1cccc(S(=O)(=O)NC3CC3)c1)c1ccsc12          568

[1] O=C(O)c1ccc2c(c1)nc(Nc1ccc3[nH]ccc3c1)c1ccsc12
[2] O=C(O)c1ccc2c(c1)nc(Nc1ccc(F)c(F)c1)c1ccsc12
[3] O=C(O)c1ccc2c(c1)nc(NCCc1cccc(Cl)c1)c1ccncc12 [drawing 1559]
Input: Sort (3 molecules) by IC50: min first. The reply should contain the labels ordered as requested.
Output: 2, 1, 3

[A] CN(C)CCNc1nc2cc(C(=O)O)ccc2c2cnccc12
[B] Clc1cccc(Nc2nc3cc(-c4nnn[nH]4)ccc3c3cnccc23)c1
Input: Of A versus B , which is the one with smaller reported IC50? Answer by quoting the chosen item's label.
Output: A

----------
target: recombinant human CK2 (Homo sapiens (Human)); experiment: CK2 assay (cell-free, 33P-ATP filter plate); assay type: biochemical; details: 10 uM; read-out: CK2 % inhib @ 10 uM
Sequence (P68400 whole entry): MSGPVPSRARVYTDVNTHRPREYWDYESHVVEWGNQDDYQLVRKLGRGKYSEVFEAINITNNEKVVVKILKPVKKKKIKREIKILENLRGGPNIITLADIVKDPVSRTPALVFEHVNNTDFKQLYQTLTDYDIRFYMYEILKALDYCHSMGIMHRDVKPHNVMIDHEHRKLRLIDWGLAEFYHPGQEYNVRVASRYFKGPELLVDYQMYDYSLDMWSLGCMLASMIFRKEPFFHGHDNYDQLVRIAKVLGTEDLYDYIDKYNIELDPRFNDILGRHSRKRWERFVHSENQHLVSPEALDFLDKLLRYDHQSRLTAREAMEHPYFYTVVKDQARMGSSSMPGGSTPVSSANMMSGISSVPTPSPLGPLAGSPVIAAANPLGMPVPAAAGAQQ
Sequence (P67870 whole entry partner): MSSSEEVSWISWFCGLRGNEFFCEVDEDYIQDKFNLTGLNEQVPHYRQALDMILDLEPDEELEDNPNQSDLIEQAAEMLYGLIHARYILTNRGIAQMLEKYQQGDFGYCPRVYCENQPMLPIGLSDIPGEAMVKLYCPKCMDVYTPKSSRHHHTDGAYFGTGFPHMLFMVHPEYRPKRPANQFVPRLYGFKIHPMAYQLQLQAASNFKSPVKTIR
Reported Endpoint: inhibition at 10 µM (%)

Solved cases below.
>>> print(df.to_string())
                                   compound    reported_endpoint  assay_value
0  O=C(c1ccc2c(c1)[nH]c(=O)c1ccsc12)N1CCNCC1  inhibition at 10 µM          -27
1  O=C(NCc1ccncc1)c1ccc2c(c1)[nH]c(=O)c1ccsc12  inhibition at 10 µM          -13
2  COc1ccc(CCNC(=O)c2ccc3c(c2)[nH]c(=O)c2ccsc23)cc1OC  inhibition at 10 µM          -22
3  COC(=O)c1ccc2c(c1)nc(Cl)c1ccsc12 [drawing 695]  inhibition at 10 µM           18

[a] O=C(O)CNC(=O)c1ccc2c(c1)[nH]c(=O)c1ccsc12
[b] CC(C)(C)OC(=O)N1CCN(C(=O)c2ccc3c(c2)[nH]c(=O)c2ccsc23)CC1
Input: Larger number for inhibition at 10 µM: a , or b ? Answer by quoting the chosen item's label.
Output: a

----------
molecular target: FLT3 autophos (Homo sapiens (Human)); assay: FLT3 autophos IC50 (Table 46)
Sequence (P36888 27-993): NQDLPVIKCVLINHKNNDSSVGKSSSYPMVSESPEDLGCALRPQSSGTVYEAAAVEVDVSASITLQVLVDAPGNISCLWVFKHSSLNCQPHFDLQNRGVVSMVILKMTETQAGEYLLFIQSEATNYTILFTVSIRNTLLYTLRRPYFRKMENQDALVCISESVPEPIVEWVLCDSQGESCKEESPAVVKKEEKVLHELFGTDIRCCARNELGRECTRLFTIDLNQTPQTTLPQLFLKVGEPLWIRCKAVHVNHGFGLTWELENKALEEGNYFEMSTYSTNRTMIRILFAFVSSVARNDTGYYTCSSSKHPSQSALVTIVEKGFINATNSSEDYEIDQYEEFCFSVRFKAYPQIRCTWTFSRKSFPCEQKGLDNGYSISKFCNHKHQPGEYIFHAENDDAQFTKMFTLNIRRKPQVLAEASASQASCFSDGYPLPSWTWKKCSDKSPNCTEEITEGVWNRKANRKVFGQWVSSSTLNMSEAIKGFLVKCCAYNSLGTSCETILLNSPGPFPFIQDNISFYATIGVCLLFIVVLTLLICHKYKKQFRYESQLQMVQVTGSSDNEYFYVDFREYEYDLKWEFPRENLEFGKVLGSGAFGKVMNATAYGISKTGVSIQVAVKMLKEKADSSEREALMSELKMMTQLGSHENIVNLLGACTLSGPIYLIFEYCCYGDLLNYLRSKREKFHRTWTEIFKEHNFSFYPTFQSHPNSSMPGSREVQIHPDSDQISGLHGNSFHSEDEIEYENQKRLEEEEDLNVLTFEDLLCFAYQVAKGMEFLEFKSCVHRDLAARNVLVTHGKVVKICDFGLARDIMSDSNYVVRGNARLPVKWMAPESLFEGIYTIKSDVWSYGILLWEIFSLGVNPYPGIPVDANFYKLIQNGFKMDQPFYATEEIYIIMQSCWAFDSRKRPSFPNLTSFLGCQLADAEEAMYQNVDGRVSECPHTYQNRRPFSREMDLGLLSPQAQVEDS
Reported Endpoint: IC50

>>> print(df.to_string())
                         structure_notation  assay_value
0  CN(C)CCOc1ccc(Nc2nc3c(-c4nnc[nH]4)cccc3c3cnccc23)c(Cl)c1      5.41 µM

For reference, reported IC50 for c1cc(-c2nnc[nH]2)c2nc(NC3CCCC3)c3ccncc3c2c1 stands at > 10 µM

For reference, reported IC50 for FC(F)(F)Oc1ccc(Nc2nc3c(-c4nnc[nH]4)cccc3c3cnccc23)c(Cl)c1 stands at > 10 µM

For reference, reported IC50 for c1cc(-c2nnc[nH]2)c2nc(N3CCCC3)c3ccncc3c2c1 stands at > 10 µM

For reference, reported IC50 for Fc1cc(OCCN2CCCC2)ccc1Nc1nc2c(-c3nnc[nH]3)cccc2c2cnccc12 stands at > 10 µM

----------
system: HCT-116 human colorectal carcinoma cells; experiment: Cell-proliferation assay using Alamar Blue dye; assay type: cell-based; details: Homo sapiens, HCT-116, second HCT-116 column (c8); read-out: HCT-116 (uM) cell proliferation modulatory activity;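 further: cells exposed to compound for about 4 days, then Alamar Blue added and dye fluorescence read after about 4 h, compared with medium-only control wells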
Reported Endpoint: IC50

Solved cases below.
                         structure_notation                                    system  reported_endpoint  assay_value
0  O=C(O)c1ccc2c(c1)nc(Nc1cccc3ncccc13)c1ccncc12  HCT-116 human colorectal carcinoma cells               IC50      > 10 µM
1  N#Cc1ccc2c(c1)nc(NCc1ccc(C(N)=O)cc1)c1ccsc12  HCT-116 human colorectal carcinoma cells               IC50      > 10 µM
2         CN(C)CCCNc1nc2cc(C#N)ccc2c2sccc12  HCT-116 human colorectal carcinoma cells               IC50      3.37 µM
3  c1cc2c(N3CCC(N4CCCC4)CC3)nc3cc(-c4nnn[nH]4)ccc3c2s1  HCT-116 human colorectal carcinoma cells               IC50      > 10 µM
4  O=C(O)c1ccc2c(c1)nc(NCCn1ccnc1)c1ccncc12  HCT-116 human colorectal carcinoma cells               IC50      > 10 µM
5  c1ccc(CNc2nc3cc(-c4nnn[nH]4)ccc3c3sccc23)nc1  HCT-116 human colorectal carcinoma cells               IC50      > 10 µM
6  Fc1cccc(Nc2nc3cc(-c4nnn[nH]4)ccc3c3cscc23)c1  HCT-116 human colorectal carcinoma cells               IC50      > 10 µM
7      CCCNc1nc2cc(-c3nnn[nH]3)ccc2c2sccc12  HCT-116 human colorectal carcinoma cells               IC50      > 10 µM

For reference, reported IC50 for Cn1nc(C2CC2)cc1Nc1nc2cc(C(=O)O)ccc2c2cnccc12 stands at > 10 µM

For reference, reported IC50 for COC(=O)c1ccc2c(c1)nc(NCCN(C)C)c1ccsc12 stands at 1.52 µM

For reference, reported IC50 for CN(c1ccccc1)c1nc2cc(C(=O)O)ccc2c2ccncc12 stands at > 10 µM

For reference, reported IC50 for O=C(O)c1ccc2c(c1)nc(Nc1cccc(F)c1)c1nccnc12 stands at > 10 µM

For reference, reported IC50 for O=C(O)c1ccc2c(c1)nc(NCCc1ccccc1)c1nccnc12 stands at > 10 µM

For reference, reported IC50 for O=C(O)c1ccc2c(c1)nc(Nc1ccc(F)c(Cl)c1)c1nccnc12 stands at > 10 µM

These data points were gathered from patent US8168651B2.
